Source: patent US11802133B2

# measured target: MAGL (Homo sapiens (Human))
# Sequence (Q99685 whole entry, species assumed): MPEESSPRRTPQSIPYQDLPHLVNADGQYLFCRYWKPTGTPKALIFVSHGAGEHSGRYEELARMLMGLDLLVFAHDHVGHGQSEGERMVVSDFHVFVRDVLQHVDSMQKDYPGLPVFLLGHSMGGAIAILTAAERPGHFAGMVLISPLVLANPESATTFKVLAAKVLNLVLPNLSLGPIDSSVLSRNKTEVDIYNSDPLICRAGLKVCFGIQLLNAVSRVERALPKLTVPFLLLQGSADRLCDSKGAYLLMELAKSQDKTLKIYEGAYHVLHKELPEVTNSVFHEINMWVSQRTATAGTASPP
# note: exactly 70 nM is not below, so it is N; use Y for IC50 strictly under it

record_smiles=Cc1cc(C(F)(F)F)ccc1OC1CCN(C(=O)N2CC[C@@H]3OCC(=O)N[C@@H]3C2)CC1 class_assignment=Y
record_smiles=O=C1CO[C@H]2CCN(C(=O)N3CC(Oc4ccc(C(F)(F)F)c(N5CC6(CCCCO6)C5)c4)C3)C[C@H]2N1 class_assignment=Y
record_smiles=CC1CN(c2cccc(OC3CN(C(=O)N4CC[C@@H]5OCC(=O)N[C@@H]5C4)C3)c2Cl)C1 class_assignment=N
record_smiles=O=C1CO[C@H]2CCN(C(=O)N3CC(CC(F)(F)c4ccc(C(F)(F)F)cc4)C3)C[C@H]2N1 class_assignment=Y
record_smiles=O=C1CO[C@H]2CCN(C(=O)N3CCC(Oc4ccc(Cl)c(N5CCOCC5)c4)CC3)C[C@H]2N1 class_assignment=N

q: is_below(IC50, 70 nM) for `O=C1CO[C@H]2CCN(C(=O)N3CCC(Oc4cc(-n5cccn5)cc(C(F)(F)F)c4)CC3)C[C@H]2N1` ?
a: N

q: Now consider `O=C1CO[C@H]2CCN(C(=O)N3CCC(Oc4ccc(C(F)(F)F)c(-n5cccn5)c4)CC3)C[C@H]2N1` and answer again.
a: N
